Every entry's value here was drawn from patent US20260091050A1.

- experiment: Three-part study (Parts C, D, E) of Compound 1-A: overall safety/tolerability and pharmacokinetics
- Format: in vivo, human
- experimentalParameters: human, in vivo, 150 mg/d, AUC SS (AUCinf for Compound 1), Part C, 150 mg/d (n=6), steady state
quantity: AUC(0-inf) (ng·h/mL)
The reply should be a number in ng·h/mL, with the unit left off.

What AUC(0-inf) value was documented for this compound, CNc1nc(N)nc2c1ncn2[C@@H]1O[C@H](CO[P@@](=O)(N[C@@H](C)C(=O)OC(C)C)Oc2ccccc2)[C@@H](O)[C@@]1(C)F ? 475

====

- experiment: Three-part study (Parts C, D, E) of Compound 1-A: overall safety/tolerability and pharmacokinetics
- Format: in vivo, human
- experimentalParameters: human, in vivo, 600 mg/d, AUC Day 1 (AUCinf for Compound 1), Part D, 600 mg/d (n=6), Day 1
- Procedure: Part C was a randomized, double-blind, placebo-controlled MAD study divided into three cohorts. […] The dose escalation only proceeded following satisfactory review of the data. HCV-infected patients were treatment-naïve with HCV RNA ≥5 log 10 IU/mL. […] Plasma drug levels were measured using LC-MS/MS.
quantity: AUC(0-inf) (ng·h/mL)
The reply should be a number in ng·h/mL, with the unit left off.

What AUC(0-inf) value was documented for this compound, CNc1nc(N)nc2c1ncn2[C@@H]1O[C@H](CO[P@@](=O)(N[C@@H](C)C(=O)OC(C)C)Oc2ccccc2)[C@@H](O)[C@@]1(C)F ? 3330

====

- experiment: Three-part study (Parts C, D, E) of Compound 1-A: overall safety/tolerability and pharmacokinetics
- Assay type: in vivo, human
- experimentalParameters: human, in vivo, 600 mg/d, AUC Day 1 (AUCinf for Compound 1), Part C, 600 mg/d (n=6), Day 1
quantity: AUC(0-inf) (ng·h/mL)
The reply should be a number in ng·h/mL, with the unit left off.

What AUC(0-inf) value was documented for this compound, CNc1nc(N)nc2c1ncn2[C@@H]1O[C@H](CO[P@@](=O)(N[C@@H](C)C(=O)OC(C)C)Oc2ccccc2)[C@@H](O)[C@@]1(C)F ? 3340

====

- experiment: Storage stability of Compound 1 forms and amorphous salts at 25° C./60% RH for 14 days (HPLC, observation)
- experimentalParameters: 14 days at 25° C./60% RH
quantity: HPLC
Give the figure only, with no unit attached.

What HPLC value was documented for this compound, CNc1nc(N)nc2c1ncn2[C@@H]1O[C@H](CO[P@@](=O)(N[C@@H](C)C(=O)OC(C)C)Oc2ccccc2)[C@@H](O)[C@@]1(C)F [Sample 1-9] ? 96.4

What HPLC value was documented for this compound, CNc1nc(N)nc2c1ncn2[C@@H]1O[C@H](CO[P@@](=O)(N[C@@H](C)C(=O)OC(C)C)Oc2ccccc2)[C@@H](O)[C@@]1(C)F [Sample 1-1] ? 98.5

What HPLC value was documented for this compound, CNc1nc(N)nc2c1ncn2[C@@H]1O[C@H](CO[P@@](=O)(N[C@@H](C)C(=O)OC(C)C)Oc2ccccc2)[C@@H](O)[C@@]1(C)F [Sample 1-2] ? 99.0

What HPLC value was documented for this compound, CNc1nc(N)nc2c1ncn2[C@@H]1O[C@H](CO[P@@](=O)(N[C@@H](C)C(=O)OC(C)C)Oc2ccccc2)[C@@H](O)[C@@]1(C)F [Sample 1-3] ? 99.4

====

- experiment: Storage stability of Compound 1 forms and amorphous salts at 25° C./60% RH for 14 days (HPLC, observation)
- experimentalParameters: 14 days at 25° C./60% RH
quantity: Observation

CNc1nc(N)nc2c1ncn2[C@@H]1O[C@H](CO[P@@](=O)(N[C@@H](C)C(=O)OC(C)C)Oc2ccccc2)[C@@H](O)[C@@]1(C)F [Sample 1-1] | White solid
CNc1nc(N)nc2c1ncn2[C@@H]1O[C@H](CO[P@@](=O)(N[C@@H](C)C(=O)OC(C)C)Oc2ccccc2)[C@@H](O)[C@@]1(C)F [Sample 1-2] | White solid
CNc1nc(N)nc2c1ncn2[C@@H]1O[C@H](CO[P@@](=O)(N[C@@H](C)C(=O)OC(C)C)Oc2ccccc2)[C@@H](O)[C@@]1(C)F [Sample 1-3] | White solid
CNc1nc(N)nc2c1ncn2[C@@H]1O[C@H](CO[P@@](=O)(N[C@@H](C)C(=O)OC(C)C)Oc2ccccc2)[C@@H](O)[C@@]1(C)F [Sample 1-9] | White solid

====

- experiment: Three-part study (Parts C, D, E) of Compound 1-A: overall safety/tolerability and pharmacokinetics
- Assay type: in vivo, human
- experimentalParameters: human, plasma, oral, 300 mg/d, AUC SS (AUC, for Metabolite 1-7), Part C, 300 mg/d (n=6), steady state
quantity: AUC
Write down the value, and be sure its unit follows.

What AUC value was documented for this molecule, C[C@@]1(F)[C@H](O)[C@@H](CO)O[C@H]1n1cnc2c(=O)[nH]c(N)nc21 [metabolite 1-7] ? 1830 ng·h/mL

====

- experiment: Three-part study (Parts C, D, E) of Compound 1-A: overall safety/tolerability and pharmacokinetics
- Format: in vivo, human
- experimentalParameters: human, in vivo, 600 mg/d, AUC SS (AUCinf for Compound 1), Part E, 600 mg/d (n=6), steady state
quantity: AUC(0-inf) (ng·h/mL)
The reply should be a number in ng·h/mL, with the unit left off.

What AUC(0-inf) value was documented for this compound, CNc1nc(N)nc2c1ncn2[C@@H]1O[C@H](CO[P@@](=O)(N[C@@H](C)C(=O)OC(C)C)Oc2ccccc2)[C@@H](O)[C@@]1(C)F ? 3530

====

- targetSystem: human mitochondrial RNA-dependent RNA polymerase (POLRMT) (Homo sapiens)
- Sequence (O00411 42-1230): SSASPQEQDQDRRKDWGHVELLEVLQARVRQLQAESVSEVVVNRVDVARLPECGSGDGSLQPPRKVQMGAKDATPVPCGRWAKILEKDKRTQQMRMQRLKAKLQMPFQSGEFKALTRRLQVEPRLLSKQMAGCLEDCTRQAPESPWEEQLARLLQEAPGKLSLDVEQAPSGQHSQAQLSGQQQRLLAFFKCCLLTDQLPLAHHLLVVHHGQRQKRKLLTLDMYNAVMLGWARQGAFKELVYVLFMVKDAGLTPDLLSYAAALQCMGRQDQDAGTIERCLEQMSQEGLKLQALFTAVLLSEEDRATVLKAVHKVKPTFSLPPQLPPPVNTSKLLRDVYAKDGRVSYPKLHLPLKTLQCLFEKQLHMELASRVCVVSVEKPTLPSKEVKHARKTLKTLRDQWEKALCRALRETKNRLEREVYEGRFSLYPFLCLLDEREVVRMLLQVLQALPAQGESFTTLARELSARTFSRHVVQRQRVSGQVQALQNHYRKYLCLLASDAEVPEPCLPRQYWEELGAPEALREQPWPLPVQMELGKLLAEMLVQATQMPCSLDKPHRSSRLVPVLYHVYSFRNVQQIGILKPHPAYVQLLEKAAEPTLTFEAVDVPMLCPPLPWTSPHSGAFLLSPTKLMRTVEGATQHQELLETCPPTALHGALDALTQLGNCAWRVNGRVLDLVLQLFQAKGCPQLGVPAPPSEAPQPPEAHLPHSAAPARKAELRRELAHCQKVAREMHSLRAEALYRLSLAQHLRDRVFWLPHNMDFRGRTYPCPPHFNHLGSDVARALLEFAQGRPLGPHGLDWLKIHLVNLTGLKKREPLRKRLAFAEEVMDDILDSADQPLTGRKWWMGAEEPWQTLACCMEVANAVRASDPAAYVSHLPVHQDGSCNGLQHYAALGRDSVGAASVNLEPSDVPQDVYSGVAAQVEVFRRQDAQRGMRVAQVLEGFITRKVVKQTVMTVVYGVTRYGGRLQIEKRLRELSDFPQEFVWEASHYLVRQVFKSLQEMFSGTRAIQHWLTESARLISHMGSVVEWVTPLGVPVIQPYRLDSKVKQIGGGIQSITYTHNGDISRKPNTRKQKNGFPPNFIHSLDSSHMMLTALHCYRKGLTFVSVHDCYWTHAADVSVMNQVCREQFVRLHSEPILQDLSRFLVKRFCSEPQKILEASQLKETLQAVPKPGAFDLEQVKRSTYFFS
quantity: Kd (µM)
The reply should be a number in µM, with the unit left off.

Record C[C@@]1(F)[C@H](O)[C@@H](COP(=O)(O)OP(=O)(O)OP(=O)(O)O)O[C@H]1n1cnc2c(=O)[nH]c(N)nc21 [metabolite 1-6] : what is its Kd with human mitochondrial RNA-dependent RNA polymerase (POLRMT) (Homo sapiens)? 204

====

- experiment: Three-part study (Parts C, D, E) of Compound 1-A: overall safety/tolerability and pharmacokinetics
- Assay type: in vivo, human
- experimentalParameters: human, in vivo, 300 mg/d, AUC SS (AUCinf for Compound 1), Part C, 300 mg/d (n=6), steady state
- Experimental: Part C was a randomized, double-blind, placebo-controlled MAD study divided into three cohorts. […] The dose escalation only proceeded following satisfactory review of the data. HCV-infected patients were treatment-naïve with HCV RNA ≥5 log 10 IU/mL. […] Plasma drug levels were measured using LC-MS/MS.
quantity: AUC(0-inf) (ng·h/mL)
The reply should be a number in ng·h/mL, with the unit left off.

What AUC(0-inf) value was documented for this molecule, CNc1nc(N)nc2c1ncn2[C@@H]1O[C@H](CO[P@@](=O)(N[C@@H](C)C(=O)OC(C)C)Oc2ccccc2)[C@@H](O)[C@@]1(C)F [Compound 1] ? 1510

====

Measured HPLC, listed per entry for reference.
- experiment: Storage stability of Compound 1 forms and amorphous salts at 25° C./60% RH for 14 days (HPLC, observation)
- experimentalParameters: 7 days at 25° C./60% RH
Give the figure only, with no unit attached.

// below: answered molecules
CNc1nc(N)nc2c1ncn2[C@@H]1O[C@H](CO[P@@](=O)(N[C@@H](C)C(=O)OC(C)C)Oc2ccccc2)[C@@H](O)[C@@]1(C)F [Sample 1-1] | 98.7
CNc1nc(N)nc2c1ncn2[C@@H]1O[C@H](CO[P@@](=O)(N[C@@H](C)C(=O)OC(C)C)Oc2ccccc2)[C@@H](O)[C@@]1(C)F [Sample 1-9] | 98.1
CNc1nc(N)nc2c1ncn2[C@@H]1O[C@H](CO[P@@](=O)(N[C@@H](C)C(=O)OC(C)C)Oc2ccccc2)[C@@H](O)[C@@]1(C)F [Sample 1-2] | 99.2

Now for the molecule whose HPLC we want.
What HPLC value was documented for this molecule, CNc1nc(N)nc2c1ncn2[C@@H]1O[C@H](CO[P@@](=O)(N[C@@H](C)C(=O)OC(C)C)Oc2ccccc2)[C@@H](O)[C@@]1(C)F [Sample 1-3] ? 99.6

====

- experiment: Three-part study (Parts C, D, E) of Compound 1-A: overall safety/tolerability and pharmacokinetics
- Format: in vivo, human
- experimentalParameters: human, in vivo, 300 mg/d, AUC Day 1 (AUCinf for Compound 1), Part C, 300 mg/d (n=6), Day 1
quantity: AUC(0-inf)
Write down the value, and be sure its unit follows.

What AUC(0-inf) value was documented for this compound, CNc1nc(N)nc2c1ncn2[C@@H]1O[C@H](CO[P@@](=O)(N[C@@H](C)C(=O)OC(C)C)Oc2ccccc2)[C@@H](O)[C@@]1(C)F ? 1.95 µg·h/mL
